- tested target: Human recombinant MAO-B (hMAO-B) (Homo sapiens)
- Construct: purchased Sigma Aldrich; host or cells: insect cells
- Sequence (P27338 whole entry): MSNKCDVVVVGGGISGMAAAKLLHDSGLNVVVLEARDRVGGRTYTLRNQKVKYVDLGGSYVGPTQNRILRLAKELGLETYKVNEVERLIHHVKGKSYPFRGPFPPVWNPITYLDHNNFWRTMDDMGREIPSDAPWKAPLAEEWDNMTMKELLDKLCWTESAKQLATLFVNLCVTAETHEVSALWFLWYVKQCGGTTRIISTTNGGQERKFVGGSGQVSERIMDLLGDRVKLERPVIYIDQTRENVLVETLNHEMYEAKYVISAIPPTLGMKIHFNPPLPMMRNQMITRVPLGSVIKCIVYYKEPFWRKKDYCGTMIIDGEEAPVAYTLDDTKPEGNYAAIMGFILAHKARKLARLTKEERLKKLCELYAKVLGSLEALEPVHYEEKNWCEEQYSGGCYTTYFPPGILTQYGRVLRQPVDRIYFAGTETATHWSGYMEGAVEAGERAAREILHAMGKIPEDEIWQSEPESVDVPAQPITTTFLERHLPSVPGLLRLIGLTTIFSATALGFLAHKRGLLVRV
- experiment summary: MAO-B enzyme assay (Amplex Red, resorufin fluorescence)
- Assay type: biochemical
- condition info: IC50 (MAO-A)/IC50 (MAO-B)
reported metric: Selectivity Index (SI)

# example entries with known answers
compound: C#CCN[C@@H]1CCc2ccccc21 [rasagiline, reference compound]
value: > 50
--
compound: O=C(Nc1ccc2[nH]ccc2c1)c1cccc(Cl)c1 [3n, 3-Chloro-N-(1H-indol-5-yl)benzamide]
value: >71
--
compound: O=C(Nc1ccc2[nH]ccc2c1)c1cccc(Br)c1 [3r, 3-Bromo-N-(1H-indol-5-yl)benzamide]
value: >109
--
compound: O=C(Nc1ccc2[nH]ccc2c1)c1ccc(C(F)(F)F)cc1
value: >151
--
compound: O=C(Nc1ccc2[nH]ccc2c1)c1cccc(C(F)(F)F)c1
value: >83

Could you now look at the following compound, please?
Reported Human recombinant MAO-B (hMAO-B) (Homo sapiens) Selectivity Index (SI) for item O=C(Nc1ccc2[nH]ccc2c1)c1cc(Cl)cc(Cl)c1 [3w, 3,5-Dichloro-N-(1H-indol-5-yl)benzamide] was >41
